# System: Candida tropicalis
# RUN DESCRIPTION: Antifungal activity against Candida tropicalis assessed as reduction in fungal cell growth incubated for 48 hrs by broth microdilution method
# Assay type: functional
RESULT TYPE: MIC

# input So what's the measured MIC for this one? OC(Cn1cncn1)(Cn1nnc(CCN2CCN(c3ccc(F)cc3)CC2)n1)c1ccc(F)cc1F (stereo not drawn)
# output 1 to 16 µg/mL

# input Proceed to CCCCOc1ccccc1N1CCN(CCc2nnnn2CC(O)(Cn2cncn2)c2ccc(F)cc2F)CC1 (stereo not drawn)
# output 0.5 to 16 µg/mL

# input Proceed to COc1ccccc1N1CCN(CCc2nnnn2[C@@H](C)[C@](O)(Cn2cncn2)c2ccc(F)cc2F)CC1
# output 0.12 to 16 µg/mL

# input Proceed to C[C@H](n1nnnc1CCN1CCN(c2ccccn2)CC1)[C@](O)(Cn1cncn1)c1ccc(F)cc1F
# output 0.12 to 16 µg/mL

# input Proceed to C[C@@H](c1ncncc1F)[C@](O)(Cn1cncn1)c1ccc(F)cc1F
# output 0.015 to 0.5 µg/mL

# input Proceed to OC(Cn1cncn1)(Cn1nnc(CCN2CCN(c3ccccc3Cl)CC2)n1)c1ccc(F)cc1F (stereo not drawn)
# output 1 to 16 µg/mL

# input Proceed to OC(Cn1cncn1)(Cn1nnnc1CCN1CCN(c2ccc(Cc3ccccc3)cc2)CC1)c1ccc(F)cc1F (stereo not drawn)
# output 0.5 to 16 µg/mL

# input Proceed to COc1ccc(N2CCN(CCc3nnnn3[C@@H](C)[C@](O)(Cn3cncn3)c3ccc(F)cc3F)CC2)cc1
# output 0.12 to 16 µg/mL
